Target: Human PPARα (Homo sapiens, UniProt Q07869)
Construct: host or cells: proprietary non-human mammalian cells
Sequence (Q07869 1-468): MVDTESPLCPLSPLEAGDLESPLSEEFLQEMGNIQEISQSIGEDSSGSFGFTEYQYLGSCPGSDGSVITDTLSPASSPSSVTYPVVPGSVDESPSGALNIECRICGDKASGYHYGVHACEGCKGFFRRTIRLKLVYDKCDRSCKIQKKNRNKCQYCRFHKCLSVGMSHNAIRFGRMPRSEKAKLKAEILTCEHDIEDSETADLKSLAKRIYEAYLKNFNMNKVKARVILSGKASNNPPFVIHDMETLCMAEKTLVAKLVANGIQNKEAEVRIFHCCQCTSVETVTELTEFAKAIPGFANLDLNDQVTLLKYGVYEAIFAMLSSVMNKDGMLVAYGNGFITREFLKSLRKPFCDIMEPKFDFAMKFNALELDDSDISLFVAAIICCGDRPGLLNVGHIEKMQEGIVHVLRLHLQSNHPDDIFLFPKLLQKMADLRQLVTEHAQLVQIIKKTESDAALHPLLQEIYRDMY
Assay: Human PPARα Reporter Assay (luciferase)
Assay type: cell-based
Conditions: human PPARα reporter cells, overnight incubation, antagonism; read-out: Luciferase IC50
Measured parameter: IC50

Entry CCn1c(CCCc2ccc(-c3cccc(CC(=O)O)c3)cc2)nn(Cc2ccc(C(C)(C)C)cc2)c1=O [Example 1] ; IC50 = 95 nM

The molecule CCn1c(CCCc2ccc(-c3ccc(OC)c(NS(=O)(=O)CC)n3)cc2)nn(Cc2ccc(C(C)(C)C)cc2)c1=O [Example 189] showed IC50 equal to 36 nM

COc1ccc(-c2ccc(CCCc3nn(Cc4ccc(C(C)(C)C)cc4)c(=O)n3C)cc2)cc1CC(=O)O [Example 106] has a reported IC50 of 26 nM

Per the record, CCn1c(CCCc2ccc(-c3cnc(C4(F)COC4)s3)cc2)nn(Cc2ccc(C(C)(C)C)cc2)c1=O [Example 202] has IC50 of 51 nM

IC50 recorded for this molecule, CCn1c(CCCc2ccc(-c3ccc(OC)c(CNS(C)(=O)=O)c3)cc2)nn(Cc2ccc(C(C)(C)C)cc2)c1=O [Example 186] , is 587 nM

get_value(item= CCn1c(CCCc2ccc(-c3cccc(C4(C(=O)O)CC4)c3)cc2)nn(Cc2ccc(C(C)(C)C)cc2)c1=O [Example 13] , readout=IC50) returns 268 nM

Entry under test: CCn1c(CCCc2ccc(-c3ccc(NS(=O)(=O)c4ccccc4)c(OC)n3)cc2)nn(Cc2ccc(C(C)(C)C)cc2)c1=O [Example 98] . Its IC50 was 264 nM

Noted for CCn1c(CCCc2ccc(-c3cccc(N)n3)cc2)nn(Cc2ccc(C(C)(C)C)cc2)c1=O [Example 3] : its IC50 reads 271 nM

Looking up CCn1c(CCCc2ccc(-c3ccc(OC)c(C4(C(=O)O)CC4)c3)cc2)nn(Cc2ccc(C(C)(C)C)cc2)c1=O [Example 128] , I see its IC50 listed as 281 nM

In plain terms, CCn1c(CCCc2ccc(-c3cccc(NS(=O)(=O)c4ccc(-c5ccc(OC)cc5)cc4)n3)cc2)nn(Cc2ccc(C(C)(C)C)cc2)c1=O [Example 74] has a documented IC50 of 945 nM

Record CCn1c(CCCc2ccc(-c3cncc(NS(=O)(=O)c4ccccc4)n3)cc2)nn(Cc2ccc(C(C)(C)C)cc2)c1=O [Example 129] , field IC50: 36 nM

Query CCn1c(CCCc2ccc(-c3cccc(CS(=O)(=O)NCc4ccccc4)c3)cc2)nn(Cc2ccc(C(C)(C)C)cc2)c1=O [Example 105] yields IC50 of 985 nM

Noted for CCn1c(CCCc2ccc(-c3cccc(NS(=O)(=O)c4ccc(C(F)(F)F)cc4)n3)cc2)nn(Cc2ccc(C(C)(C)C)cc2)c1=O [Example 82] : its IC50 reads 181 nM

Per the records, this molecule ( CCn1c(CCCc2ccc(-c3ccc(OC)c(NS(=O)(=O)c4ccc(OC)cc4)n3)cc2)nn(Cc2ccc(C(C)(C)C)cc2)c1=O [Example 93] ) has IC50 equal to 3 nM
